# target desc: Androgen Receptor (AR) (Homo sapiens, UniProt P10275, T878A)
# Construct: cell based immuno-fluorescence assay using the LNCaP prostate epithelial cell line; endogenous in cells; host or cells: LNCaP clone FGC (ATCC CRL-1740)
# Sequence (P10275 whole entry T878A): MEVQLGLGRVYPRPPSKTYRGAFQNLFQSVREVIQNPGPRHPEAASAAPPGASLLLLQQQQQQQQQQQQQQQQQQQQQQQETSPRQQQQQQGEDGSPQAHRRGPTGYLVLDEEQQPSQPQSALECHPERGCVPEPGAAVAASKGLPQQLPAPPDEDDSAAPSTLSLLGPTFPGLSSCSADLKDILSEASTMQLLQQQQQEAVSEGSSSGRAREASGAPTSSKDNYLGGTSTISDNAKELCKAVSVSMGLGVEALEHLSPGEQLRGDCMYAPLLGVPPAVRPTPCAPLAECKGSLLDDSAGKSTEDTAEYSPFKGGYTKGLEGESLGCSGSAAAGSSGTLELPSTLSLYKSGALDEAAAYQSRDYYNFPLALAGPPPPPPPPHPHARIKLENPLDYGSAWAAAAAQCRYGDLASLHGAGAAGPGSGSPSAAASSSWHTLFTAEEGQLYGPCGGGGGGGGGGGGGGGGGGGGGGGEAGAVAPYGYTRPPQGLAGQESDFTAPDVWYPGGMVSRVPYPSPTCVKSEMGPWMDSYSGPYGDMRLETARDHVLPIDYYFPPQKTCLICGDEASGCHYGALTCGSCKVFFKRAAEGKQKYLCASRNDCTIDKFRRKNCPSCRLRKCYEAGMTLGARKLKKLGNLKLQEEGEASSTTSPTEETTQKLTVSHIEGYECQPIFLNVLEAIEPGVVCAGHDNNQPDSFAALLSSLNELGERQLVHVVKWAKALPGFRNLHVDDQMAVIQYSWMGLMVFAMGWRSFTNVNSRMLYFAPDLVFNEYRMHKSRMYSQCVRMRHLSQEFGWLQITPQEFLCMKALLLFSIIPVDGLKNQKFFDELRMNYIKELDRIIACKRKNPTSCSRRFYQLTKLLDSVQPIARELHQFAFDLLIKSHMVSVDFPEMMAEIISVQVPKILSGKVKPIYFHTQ
# protocol description: LNCaP Androgen Receptor Down-regulation Cell Assay (immunofluorescence end point)
# Format: cell-based
# measurement setup: LNCaP prostate carcinoma cells, compound incubation 20-22 hours, 50% reduction of the AR signal; read-out: Androgen Receptor Down-regulation Assay (a) IC50/μM
parameter measured: DC50

smiles text	target desc	DC50
FC(F)(F)c1ccc(C2CCN(c3ccc4nnc(C(F)(F)F)n4n3)CC2)cc1	Androgen Receptor (AR) (Homo sapiens, UniProt P10275, T878A)	3.2 µM
O=C(NCCO)c1cccc(OC2CCN(c3ccc4nnc(C(F)(F)F)n4n3)CC2)c1	Androgen Receptor (AR) (Homo sapiens, UniProt P10275, T878A)	> 22 µM
FC(F)(F)c1nnc2ccc(N3CCC(COC4COC4)CC3)nn12	Androgen Receptor (AR) (Homo sapiens, UniProt P10275, T878A)	6.6 µM
Cc1cccc(C)c1N1CCN(c2ccc3nnc(C(F)(F)F)n3n2)CC1	Androgen Receptor (AR) (Homo sapiens, UniProt P10275, T878A)	0.77 µM
FC(F)(F)c1ccccc1CN1CCN(c2ccc3nnc(C(F)(F)F)n3n2)CC1	Androgen Receptor (AR) (Homo sapiens, UniProt P10275, T878A)	1 µM

Give DC50 (Androgen Receptor (AR) (Homo sapiens, UniProt P10275, T878A)) of the following compound: COc1ccc(S(=O)(=O)N2CCN(c3ccc4nnc(C(F)(F)F)n4n3)CC2)cc1
1.9 µM

What about FC(F)(F)c1nnc2ccc(N3CCN(Cc4cccc5c4OCO5)CC3)nn12 ?
2.9 µM

What about CN(C)C(=O)c1ccc(C2CCN(c3ccc4nnc(C(F)(F)F)n4n3)CC2)cc1 ?
1.1 µM
